The reported measurements were obtained from BindingDB's records for doi:10.1021/acs.jmedchem.0c01897.

Readings of pIC50 for the listed compounds
molecular target: Signal transducer and activator of transcription 3 (Homo sapiens); experiment: Inhibition of IL-6 induced STAT3 transcriptional activity in human HEK293 cells expressing SIE-luc2P preincubated for overnight followed by IL-6 stimulation and measured after 24 hr by Bio-Glo luciferase reagent based microplate reader assay
In plain terms, pIC50 is the concentration in mol/L turned into minus its base-10 logarithm.

Reference set, count: 4
| compound | quantity | measured_value |
| --- | --- | --- |
| O=C1CCC(N2C(=O)c3cccc(NCCCCCC4CCN(CCNC(=O)c5cc6c(o5)C(=O)c5ccccc5C6=O)CC4)c3C2=O)C(=O)N1 (configuration not stated) | pIC50 | 6.05 |
| CN1C(=O)CCC(N2C(=O)c3cccc(NCCCCCC4CCN(CCNC(=O)c5cc6c(o5)C(=O)c5ccccc5C6=O)CC4)c3C2=O)C1=O (configuration not stated) | pIC50 | 5.77 |
| O=C1CCC(N2C(=O)c3cccc(NCCOCCOCCOCCNC(=O)c4cc5c(o4)C(=O)c4ccccc4C5=O)c3C2=O)C(=O)N1 (configuration not stated) | pIC50 | 5.59 |
| O=C1CCC(N2C(=O)c3cccc(NCCOCCOCCOCCOCCOCCOCCNC(=O)c4cc5c(o4)C(=O)c4ccccc4C5=O)c3C2=O)C(=O)N1 (configuration not stated) | pIC50 | 5.60 |

Q: For the compound O=C1CCC(N2C(=O)c3cccc(NCCOCCOCCOCCOCCNC(=O)c4cc5c(o4)C(=O)c4ccccc4C5=O)c3C2=O)C(=O)N1 (configuration not stated) , what pIC50 is on record?
Result: 5.57

Q: For the compound O=C1CCC(N2C(=O)c3cccc(C#CCCCNC(=O)c4cc5c(o4)C(=O)c4ccccc4C5=O)c3C2=O)C(=O)N1 (configuration not stated) , what pIC50 is on record?
Result: 5.38

Q: For the compound O=C1CCC(N2C(=O)c3cccc(OCCCCNC(=O)c4cc5c(o4)C(=O)c4ccccc4C5=O)c3C2=O)C(=O)N1 (configuration not stated) , what pIC50 is on record?
Result: 5.24

---

Readings of IC50 for the listed molecules
target: Signal transducer and activator of transcription 3 (Homo sapiens, UniProt P40763); experiment: Inhibition of IL-6 induced STAT3 transcriptional activity in human HEK293 cells expressing SIE-luc2P preincubated for overnight followed by IL-6 stimulation and measured after 24 hr by Bio-Glo luciferase reagent based microplate reader assay
Sequence (P40763 whole entry): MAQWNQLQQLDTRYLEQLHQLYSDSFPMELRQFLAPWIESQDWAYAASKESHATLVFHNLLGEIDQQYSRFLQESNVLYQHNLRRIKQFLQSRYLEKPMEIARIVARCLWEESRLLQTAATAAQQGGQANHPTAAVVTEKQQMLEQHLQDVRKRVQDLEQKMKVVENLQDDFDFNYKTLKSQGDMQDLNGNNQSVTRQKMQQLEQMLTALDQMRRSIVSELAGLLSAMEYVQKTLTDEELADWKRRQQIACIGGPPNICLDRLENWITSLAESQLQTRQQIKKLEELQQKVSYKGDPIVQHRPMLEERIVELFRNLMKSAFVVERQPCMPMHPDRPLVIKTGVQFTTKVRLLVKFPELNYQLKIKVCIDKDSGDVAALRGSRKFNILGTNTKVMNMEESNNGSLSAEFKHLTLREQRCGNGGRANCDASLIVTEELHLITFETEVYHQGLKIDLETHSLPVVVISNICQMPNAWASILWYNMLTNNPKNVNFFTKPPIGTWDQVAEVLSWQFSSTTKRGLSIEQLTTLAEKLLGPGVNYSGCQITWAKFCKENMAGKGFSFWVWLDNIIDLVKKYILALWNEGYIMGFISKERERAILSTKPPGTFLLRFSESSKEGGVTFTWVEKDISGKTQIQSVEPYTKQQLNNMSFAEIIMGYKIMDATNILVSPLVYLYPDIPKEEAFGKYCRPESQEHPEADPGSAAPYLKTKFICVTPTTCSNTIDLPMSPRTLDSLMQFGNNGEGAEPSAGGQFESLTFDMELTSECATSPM

Reference set, count: 2
| molecule | measured_on | IC50 |
| --- | --- | --- |
| O=C1CCC(N2C(=O)c3cccc(NCCNC(=O)c4cc5c(o4)C(=O)c4ccccc4C5=O)c3C2=O)C(=O)N1 (stereo not drawn) | Signal transducer and activator of transcription 3 (Homo sapiens, UniProt P40763) | 15.3 µM |
| O=C1CCC(N2C(=O)c3ccc(NCCOCCOCCNC(=O)c4cc5c(o4)C(=O)c4ccccc4C5=O)cc3C2=O)C(=O)N1 (stereo not drawn) | Signal transducer and activator of transcription 3 (Homo sapiens, UniProt P40763) | 3.4 µM |

Q: Lab note: need IC50 for O=C1CCC(N2C(=O)c3cccc(NCCCCCNC(=O)c4cc5c(o4)C(=O)c4ccccc4C5=O)c3C2=O)C(=O)N1 (stereo not drawn) on Signal transducer and activator of transcription 3 (Homo sapiens, UniProt P40763), anyone have it?
Result: 4.6 µM

---

Readings of IC50 for the listed compounds
target: Signal transducer and activator of transcription 3 (Homo sapiens, UniProt P40763); test: Inhibition of IL-6 induced STAT3 transcriptional activity in human HEK293 cells expressing SIE-luc2P preincubated for overnight followed by IL-6 stimulation and measured after 24 hr by Bio-Glo luciferase reagent based microplate reader assay
Give the value in µM but do not write µM after it.

| compound | IC50 / µM |
| --- | --- |
| O=C1CCC(N2Cc3c(NCCOCCOCCNC(=O)c4cc5c(o4)C(=O)c4ccccc4C5=O)cccc3C2=O)C(=O)N1 (stereo not drawn) | 10.9 |

Would you kindly look at the next entry?
Q: For the compound `Cc1ncsc1-c1ccc(CNC(=O)[C@@H]2C[C@@H](O)CN2C(=O)[C@@H](NC(=O)COCCOCCNC(=O)c2cc3c(o2)C(=O)c2ccccc2C3=O)C(C)(C)C)cc1` , what IC50 is on record?
Result: 11.4
